tested on: Pseudomonas aeruginosa; assay: Antimicrobial activity against Pseudomonas aeruginosa ATCC 25619 after 24 hr by two-fold serial dilution method; format: functional; details: ATCC 25619, 24 h
Attribute: MIC
Measurement Label: MIC (µg/mL)

> print(dat)
                               sample.smiles  value.measured
 1  COc1cccc(/C=C2\SC(=O)N(Cc3ccc(C(=O)O)cc3)C2=O)c1               8
 2  O=C(O)c1ccc(CN2C(=O)S/C(=C\c3cccs3)C2=O)cc1              16
 3  COc1cc(/C=C2\SC(=O)N(Cc3ccc(C(=O)O)cc3)C2=O)cc(OC)c1OC               8
 4  Cn1cccc1/C=C1\SC(=O)N(Cc2ccc(C(=O)O)cc2)C1=O              16
 5  O=C(O)c1ccc(CN2C(=O)S/C(=C\c3ccc(Br)cc3)C2=O)cc1               4
 6  O=C(O)c1ccc(CN2C(=O)S/C(=C\c3cccnc3)C2=O)cc1              32
 7  O=C(O)c1ccc(CN2C(=O)S/C(=C\c3ccc(F)cc3)C2=O)cc1               4
 8  O=C(O)c1ccc(CN2C(=O)S/C(=C\c3ccccn3)C2=O)cc1              16
 9  COc1ccc(/C=C2\SC(=O)N(Cc3ccc(C(=O)O)cc3)C2=O)cc1              32
10  O=C(O)c1ccc(CN2C(=O)S/C(=C\c3ccco3)C2=O)cc1              16
11  O=C(O)c1ccc(CN2C(=O)S/C(=C\c3ccccc3)C2=O)cc1               8
12  O=C(O)c1ccc(CN2C(=O)S/C(=C\c3ccncc3)C2=O)cc1              16
13  Cc1ccc(/C=C2\SC(=O)N(Cc3ccc(C(=O)O)cc3)C2=O)cc1              16

###

tested on: Candida albicans; assay: Antimicrobial activity against Candida albicans ATCC 2091 after 48 hr by two-fold serial dilution method; type: functional; conditions: ATCC 2091, 48 h
The following compounds are listed with their measured MIC values.
Measurement Label: MIC (µg/mL)

> print(dat)
                                   compound  value.measured
1  O=C(O)c1ccc(CN2C(=O)S/C(=C\c3ccc(Br)cc3)C2=O)cc1              16
2  Cc1ccc(/C=C2\SC(=O)N(Cc3ccc(C(=O)O)cc3)C2=O)cc1              64
3  COc1ccc(/C=C2\SC(=O)N(Cc3ccc(C(=O)O)cc3)C2=O)cc1              16
4  Cn1cccc1/C=C1\SC(=O)N(Cc2ccc(C(=O)O)cc2)C1=O              32
5  O=C(O)c1ccc(CN2C(=O)S/C(=C\c3ccccc3)C2=O)cc1              16
6  O=C(O)c1ccc(CN2C(=O)S/C(=C\c3ccc(F)cc3)C2=O)cc1               2
7  COc1cccc(/C=C2\SC(=O)N(Cc3ccc(C(=O)O)cc3)C2=O)c1              32
8  CC(=O)N1CCN(c2ccc(OCC3COC(Cn4ccnc4)(c4ccc(Cl)cc4Cl)O3)cc2)CC1 (centres undefined)               2
9  O=C(O)c1ccc(CN2C(=O)S/C(=C\c3cccnc3)C2=O)cc1              32
